biological target: Aromatase (Homo sapiens); assay: Inhibition of recombinant human aromatase using 7-methoxy-4-trifluoromethyl coumarin as substrate measured at […] conditions by fluorescence analysis
Label True when IC50 is strictly below 40 nM; otherwise label False.

Task: I'd appreciate it if you could check whether O=S(=O)(c1ccc2nsnc2c1)N1CCCC(Cn2ccnc2)C1 (stereo not given) has IC50 smaller than 40 nM.
Result: True

Task: I'd appreciate it if you could check whether COc1ccc(S(=O)(=O)N2CCCC(Cn3ccnc3)C2)c(OC)c1 (stereo not given) has IC50 smaller than 40 nM.
Result: False

Task: I'd appreciate it if you could check whether COc1ccc(S(=O)(=O)N2CCCC(Cn3ccnc3)C2)cc1F (stereo not given) has IC50 smaller than 40 nM.
Result: True

Task: I'd appreciate it if you could check whether O=S(=O)(c1ccc(F)cc1)N1CCCC(Cn2ccnc2)C1 (stereo not given) has IC50 smaller than 40 nM.
Result: False

Task: I'd appreciate it if you could check whether COc1ccc(S(=O)(=O)N2CCCC(Cn3ccnc3)C2)cc1OC (stereo not given) has IC50 smaller than 40 nM.
Result: False

* * *

target: Aromatase (Homo sapiens, UniProt P11511); test: Inhibition of recombinant human aromatase using 7-methoxy-4-trifluoromethyl coumarin as substrate measured at […] conditions by fluorescence analysis
Sequence (P11511 whole entry): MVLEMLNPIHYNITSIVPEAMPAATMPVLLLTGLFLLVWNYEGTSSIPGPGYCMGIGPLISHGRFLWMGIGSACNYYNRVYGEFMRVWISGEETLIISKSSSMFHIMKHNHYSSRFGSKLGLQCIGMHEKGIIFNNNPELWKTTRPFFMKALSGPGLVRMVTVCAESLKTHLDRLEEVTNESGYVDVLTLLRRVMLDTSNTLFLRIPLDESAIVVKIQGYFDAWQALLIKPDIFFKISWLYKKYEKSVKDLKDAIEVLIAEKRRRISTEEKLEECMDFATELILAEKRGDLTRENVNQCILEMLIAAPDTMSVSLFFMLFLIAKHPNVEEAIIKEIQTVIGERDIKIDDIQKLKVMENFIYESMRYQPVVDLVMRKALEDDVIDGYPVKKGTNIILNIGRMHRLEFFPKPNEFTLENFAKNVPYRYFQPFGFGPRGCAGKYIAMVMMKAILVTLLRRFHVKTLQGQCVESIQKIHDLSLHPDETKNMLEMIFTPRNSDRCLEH
measured.quantity: pIC50
// field semantics: pIC50 = negative decimal log of concentration (mol/L)

1. O=S(=O)(c1ccc2c(c1)OCCO2)N1CCCC(Cn2ccnc2)C1 (configuration not stated) ... 7.89
2. COc1ccc(S(=O)(=O)N2CCCC(Cn3ccnc3)C2)cc1C(C)(C)C (configuration not stated) ... 8.05
3. Cc1cc(F)ccc1S(=O)(=O)N1CCCC(Cn2ccnc2)C1 (configuration not stated) ... 7.32
4. O=S(=O)(c1cccc2nsnc12)N1CCCC(Cn2ccnc2)C1 (configuration not stated) ... 7.27
5. O=C(O)c1cc(S(=O)(=O)N2CCCC(Cn3ccnc3)C2)ccc1O (configuration not stated) ... 6.47
6. CS(=O)(=O)c1ccc(S(=O)(=O)N2CCCC(Cn3ccnc3)C2)cc1 (configuration not stated) ... 7.32
7. Cc1cc(S(=O)(=O)N2CCCC(Cn3ccnc3)C2)ccc1F (configuration not stated) ... 7.62
8. O=S(=O)(c1ccc(F)c(F)c1)N1CCCC(Cn2ccnc2)C1 (configuration not stated) ... 7.37
9. O=S(=O)(c1ccc(F)c(Cl)c1)N1CCCC(Cn2ccnc2)C1 (configuration not stated) ... 7.85
10. O=S(=O)(c1ccc(OC2CCCC2)c(F)c1)N1CCCC(Cn2ccnc2)C1 (configuration not stated) ... 7.66

Task: Identify the reported pIC50 for the following entry. COc1cc([N+](=O)[O-])ccc1S(=O)(=O)N1CCCC(Cn2ccnc2)C1 (configuration not stated)
Result: 6.89

Task: Identify the reported pIC50 for the following entry. COc1ccc(S(=O)(=O)N2CCCC(Cn3ccnc3)C2)c(C)c1C (configuration not stated)
Result: 7.23

Task: Identify the reported pIC50 for the following entry. O=S(=O)(c1ccc(F)c(F)c1F)N1CCCC(Cn2ccnc2)C1 (configuration not stated)
Result: 7.34

Task: Identify the reported pIC50 for the following entry. COc1c(C)cc(S(=O)(=O)N2CCCC(Cn3ccnc3)C2)cc1C (configuration not stated)
Result: 7.68

Task: Identify the reported pIC50 for the following entry. O=[N+]([O-])c1ccc(S(=O)(=O)N2CCCC(Cn3ccnc3)C2)cc1C(F)(F)F (configuration not stated)
Result: 7.80

Task: Identify the reported pIC50 for the following entry. N#Cc1ccc(S(=O)(=O)N2CCCC(Cn3ccnc3)C2)c(Cl)c1 (configuration not stated)
Result: 7.10

Task: Identify the reported pIC50 for the following entry. O=S(=O)(c1ccc(OC2CCCC2)cc1)N1CCCC(Cn2ccnc2)C1 (configuration not stated)
Result: 7.85

Task: Identify the reported pIC50 for the following entry. COc1ccc(S(=O)(=O)N2CCCC(Cn3ccnc3)C2)cc1Br (configuration not stated)
Result: 8.22

Task: Identify the reported pIC50 for the following entry. O=[N+]([O-])c1cccc(Cl)c1Oc1cccc(S(=O)(=O)N2CCCC(Cn3ccnc3)C2)c1 (configuration not stated)
Result: 8.05

Task: Identify the reported pIC50 for the following entry. N#Cc1ccc(S(=O)(=O)N2CCCC(Cn3ccnc3)C2)cc1 (configuration not stated)
Result: 7.44

Task: Identify the reported pIC50 for the following entry. COC(=O)c1ccccc1S(=O)(=O)N1CCCC(Cn2ccnc2)C1 (configuration not stated)
Result: 7.28

Task: Identify the reported pIC50 for the following entry. COc1c(C)cc(S(=O)(=O)N2CCCC(Cn3ccnc3)C2)c(C)c1C (configuration not stated)
Result: 7.35
